# Test system: SNB-75 CNS
# PROTOCOL TEXT: NCI-60 one-dose screen, 48 h (100 = growth as untreated, 0 = no growth, -100 = all killed)
# ASSAY SETUP: 10 µM unless noted
This is part of a sample that, as a whole, favours compounds with a hit. Of some 83,000 tested, about 20% had one in any assay.
METRIC NAME: growth (%)

INSERT INTO results (compound, measurement_target, unit_of_measurement, observed) VALUES
  ('CC1=C(C(=O)OCc2ccccc2)C(c2ccc(N(C)C)cc2)n2c(nc3ccccc32)N1 (configuration not stated)', 'SNB-75 CNS', '%', 61.2),
  ('C/C(=N/O)c1ccc(NC(=O)CSc2nnc(-c3ccc(-c4nc5ccc(Cl)cc5[nH]4)cc3)o2)cc1', 'SNB-75 CNS', '%', -27.5),
  ('Cc1nn(-c2ccccc2)c2nc(C)n(C(=O)N/N=C/c3cccc([N+](=O)[O-])c3)c(=O)c12', 'SNB-75 CNS', '%', 75.4),
  ('O=[N+]([O-])c1cccc(-c2nnc3c(/C=C/c4ccc(F)cc4)nc4ccccc4n23)c1', 'SNB-75 CNS', '%', 54.1),
  ('Cn1cc(-c2cc(N)n3nc(-c4c[nH]c5ccc(F)cc45)cc3n2)c2cc(Br)cnc21', 'SNB-75 CNS', '%', 134),
  ('CCOc1ccccc1[C@H]1C(C(=O)c2ccc(Cl)cc2)C2(N[C@@H]1c1ccccc1)C(=O)Nc1ccc(Br)cc12 (some centres not stated)', 'SNB-75 CNS', '%', 44.4),
  ('CCCSc1nnc(-c2c(C)nc3sccn23)o1', 'SNB-75 CNS', '%', 91.5),
  ('O=C(Nc1ccc(-c2ccc3c(c2)NC(=O)/C3=C\c2ccc[nH]2)cc1)Nc1ccc(Cl)c(C(F)(F)F)c1', 'SNB-75 CNS', '%', 38.5),
  ('CN1C(=O)C2(C(C#N)=C(c3ccc(Cl)cc3)Nc3c2c(-c2ccccc2)nn3-c2ccccc2)c2ccccc21 (configuration not stated)', 'SNB-75 CNS', '%', 69.4),
  ('Nc1cc(-c2c[nH]c3ccc(Br)cc23)nc2cc(-c3c[nH]c4ccccc34)nn12', 'SNB-75 CNS', '%', -11),
  ('Cc1ccc(C(=O)Nc2cc(-n3ccnc3)cc(C(F)(F)F)c2)cc1-n1cc(-c2cnc3cccnn23)nn1', 'SNB-75 CNS', '%', 132),
  ('Cc1cc(C(NC(=O)CCCCCNc2cccc3c2C(=O)N(C2CCC(=O)CC2=O)C3=O)c2cccc(N(C)C)c2)c(O)c2ncccc12 (configuration not stated)', 'SNB-75 CNS', '%', 32.9),
  ('Cc1ccc(N=Nc2c(N)nn3c(-c4cc5cc(Br)ccc5oc4=O)ccnc23)cc1', 'SNB-75 CNS', '%', 61.3),
  ('CN1C(=O)C(O)(CC(=O)c2cc3ccccc3oc2=O)c2ccccc21 (configuration not stated)', 'SNB-75 CNS', '%', 107),
  ('COc1cc(/C=C/C(=O)c2cnn(-c3cc(=O)[nH]c4ccccc34)c2C)cc(OC)c1OC', 'SNB-75 CNS', '%', 71.9),
  ('COc1ccc(OC)c(Cn2cc(C#N)c(N)c2C(=O)c2ccc(Br)cc2)c1', 'SNB-75 CNS', '%', 50.4),
  ('COc1ccc(C(=O)NNC(=O)CSc2nc3sc4c(c3c(=O)n2-c2ccc(Cl)cc2)CCCC4)cc1', 'SNB-75 CNS', '%', 44.5);
